Test system: NIH3T3
Assay: Cytotoxic Profiling of Annotated Libraries Using Quantitative High-Throughput Screening (AID 1296008); note: nearly all actives have a fitted effect of over 60% in size
Settings: Five cell lines viability, CellTiter-Glo ATP luminescence, 48-72 h
Inconclusive results are not listed. The source made the active and inactive calls. Calls come from the whole dose curve; as a rule, active = well fitted inhibition curve with a large enough effect; inconclusive = small, poorly fitted or top-dose-only effect; inactive = flat fitted curve, though single readings scatter.
Please reply with one of these outcomes: active, inactive

Check out these entries, answers already filled in.
Compound | Qualitative label
Oc1ccccc1C=NCc1ccccc1 | inactive
CC(C)=CCOc1ccc(/C=C/C(=O)c2ccc(OCC=C(C)C)cc2OCC(=O)O)cc1 | inactive
CCN1/C(=C/C=C/c2sc3ccccc3[n+]2CC)Sc2ccccc21 | active
CN1CCC(OC(c2ccccc2)c2ccccc2)CC1 | inactive

Short answer needed: outcome of this test for CC(C)NCC(O)c1ccc2ccccc2c1 (stereo unspecified) ?
inactive

CC(=O)Nc1ccc(OC(=O)c2ccccc2OC(C)=O)cc1 , same question.
inactive

C=C1c2cccc(O)c2C(O)=C2C(=O)[C@]3(O)C(O)=C(C(N)=O)C(=O)[C@@H](N(C)C)[C@@H]3[C@@H](O)[C@H]12 , same question.
inactive

CCN(CC)CCNc1ccc(CO)c2sc3ccccc3c(=O)c12 , same question.
active

O=C(CN1CCN(Cc2ccc3c(c2)OCO3)CC1)N1c2ccccc2Sc2ccccc21 , same question.
inactive

CCOc1cc(OCC)c(C(=O)CCC(=O)O)cc1OCC , same question.
inactive

C[C@@H](O)[C@H]1C(=O)N2C(C(=O)O)=C([C@H]3CCCO3)S[C@H]12 , same question.
inactive
